Source: PubChem BioAssay

- measurement.notes: TOR pathway GLN3 branch reporter MEP2-GFP changes – S. cerevisiae, multiplex flow cytometry, primary screen (AID 1867);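 also: median GFP channel fluorescence of barcode-gated MEP2-GFP cells measured by flow cytometry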
- conditions.used: S. cerevisiae MEP2-GFP strain, 3 h, at 10 µM, active compounds read high, 100% means same as DMSO wells
Inconclusive results are not listed.
assay.endpoint: GFP response vs DMSO (%)
Your answer is read as %, so omit the unit and give the number.

Example entries and their recorded answers appear below.
Prompt line: Can you share its GFP response vs DMSO? I mean this molecule: CN(C)CCN(Cc1ccc(Cl)cc1)c1ccccn1
Response line: 112

Prompt line: Another: Nc1nc(SCc2ccc([N+](=O)[O-])cc2)c2ncn(C3OC(CO)C(O)C3O)c2n1 (stereo not given)
Response line: 99.7

Prompt line: Likewise for O=C(Nc1cccc(C(=O)O)c1)/C(=C\c1ccccc1)NC(=O)c1ccccc1 ?
Response line: 98.3

Prompt line: And Cc1ccccc1C(=O)Oc1ccc(Sc2ccc(O)cc2)cc1 ?
Response line: 99.3

Now for the molecule whose GFP response vs DMSO we want.
Prompt line: Returns the measured GFP response vs DMSO for the input molecule. Input: CCNC(=O)C(Cc1ccccc1)NC(=O)OCc1ccccc1 (stereo not given)
Response line: 103
